Cited source for all entries: PubChem BioAssay AID977605

# Measurement protocol: endothelial E-selectin upregulation by compounds – imaging, HUVEC, cherry-picked samples, dose response (AID 977605);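 also: signal is the share of imaged cells scored positive for E-selectin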
# Particulars: HUVEC E-selectin immunostaining, at 19.5 µM (top of the series), percent of TNF-alpha response over vehicle
// values below are reported activation
Value expressed in %; do not type the unit.

These recorded examples may help you get a feel for the data.
                                   compound  recorded_value
0     CN(C)c1cccc(C(=O)NCc2ccc3c(c2)OCO3)c1            8.26
1  O=C(NCc1ccccc1)C(c1ccc(C(F)(F)F)cc1)N1CCN(CCN2CCOCC2)CC1 (stereo not given)            6.03
2  Cc1ccc(O)c([C@H](CCN(C(C)C)C(C)C)c2ccccc2)c1          -0.269
3  CC(C)NC(=O)Nc1ccc2c(c1)C(=O)N([C@@H](C)CO)C[C@@H](C)[C@H](CN(C)Cc1ccc(C(=O)O)cc1)O2          -0.098

q: I would be grateful if you could share the reported activation for O=S(=O)(c1ccc(F)cc1)N1CCCN(c2nccc(C(F)(F)F)n2)CC1 .
a: -0.174

* * *

# Measurement protocol: endothelial E-selectin upregulation by compounds – imaging, HUVEC, cherry-picked samples, dose response (AID 977605);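 also: signal is the share of imaged cells scored positive for E-selectin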
# Particulars: HUVEC E-selectin immunostaining, at 19.5 µM (top of the series), percent of TNF-alpha response over vehicle
// values below are reported activation
Value expressed in %; do not type the unit.

>>> df
                                   molecule  recorded_value
0  C[C@H]1CN([C@@H](C)CO)C(=O)c2cccc(NS(C)(=O)=O)c2O[C@@H]1CN(C)Cc1ccc(Oc2ccccc2)cc1           0.027
1  COC(=O)CCCn1cc(CN2CC(N3CCN(Cc4ccccc4F)CC3)CS2(=O)=O)nn1 (stereo not drawn)          -0.246
2  C[C@H]1CN([C@@H](C)CO)C(=O)c2cccc(NC(=O)C3CC3)c2O[C@H]1CN(C)Cc1ccccc1            1.36
3  Cc1noc(C)c1NC(=O)N(C)C[C@H]1Oc2ccc(NS(=O)(=O)c3cccs3)cc2C(=O)N([C@H](C)CO)C[C@H]1C           -0.05
4  Cc1noc(C)c1NC(=O)Nc1cccc2c1O[C@H](CN(C)CC1CCCCC1)[C@H](C)CN([C@@H](C)CO)C2=O           0.049
5  COc1ccccc1CC(Cc1nc2ccccc2[nH]1)c1nc2ccccc2[nH]1 (stereo not drawn)           0.165
6  C[C@@H]1CN([C@@H](C)CO)C(=O)c2cc(NC(=O)Cn3cnnn3)ccc2O[C@@H]1CN(C)Cc1ccc(Oc2ccccc2)cc1          -0.116

q: I would be grateful if you could share the reported activation for CCCCc1c(C)nc2ccc(C)cc2c1SCCC(=O)O .
a: -0.168

* * *

# Measurement protocol: endothelial E-selectin upregulation by compounds – imaging, HUVEC, cherry-picked samples, dose response (AID 977605);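 also: signal is the share of imaged cells scored positive for E-selectin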
# Particulars: HUVEC E-selectin immunostaining, at 19.5 µM (top of the series), percent of TNF-alpha response over vehicle
Quantity name: activation (%)
Value expressed in %; do not type the unit.

q: I would be grateful if you could share the reported activation for COc1cc(CC2C(=O)Nc3ccccc32)cc(C)c1O (centres undefined) .
a: 36.1

q: I would be grateful if you could share the reported activation for COc1ccc([C@H]2CC(=O)C[C@@H](CCn3nnc4ccccc43)O2)cc1 .
a: 0.021

q: I would be grateful if you could share the reported activation for CC(C)(C)c1ccc(C(=O)Nc2ccc3c(c2)C(=O)NC3=O)cc1 .
a: 0.042

q: I would be grateful if you could share the reported activation for C[C@H]1CN([C@@H](C)CO)C(=O)c2cccc(NC(=O)c3nc4ccccc4s3)c2O[C@@H]1CN(C)Cc1ccc(C(F)(F)F)cc1 .
a: -0.231

* * *

// values below are reported activation
# Measurement protocol: endothelial E-selectin upregulation by compounds – imaging, HUVEC, cherry-picked samples, dose response (AID 977605);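 also: signal is the share of imaged cells scored positive for E-selectin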
# Particulars: HUVEC E-selectin immunostaining, at 19.5 µM (top of the series), percent of TNF-alpha response over vehicle
Value expressed in %; do not type the unit.

q: I would be grateful if you could share the reported activation for C[C@@H]1CN([C@@H](C)CO)C(=O)c2cc(NC(=O)Nc3ccc4c(c3)OCO4)ccc2O[C@H]1CN(C)C .
a: -0.091

* * *

# Measurement protocol: endothelial E-selectin upregulation by compounds – imaging, HUVEC, cherry-picked samples, dose response (AID 977605);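 also: signal is the share of imaged cells scored positive for E-selectin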
# Particulars: HUVEC E-selectin immunostaining, at 19.5 µM (top of the series), percent of TNF-alpha response over vehicle
// values below are reported activation
Value expressed in %; do not type the unit.

These recorded examples may help you get a feel for the data.
>>> df
                                   compound  quantity_name  recorded_value
0  COc1ccc(C2c3[nH]c4ccccc4c3C[C@H]3C(=O)N(CC(C)C)CC(=O)N23)c(OC)c1 (stereo partly drawn)     activation           0.036
1  CC(C)NC(=O)Nc1ccc2c(c1)CC(=O)N([C@H](C)CO)C[C@H](C)[C@@H](CN(C)Cc1ccc(Oc3ccccc3)cc1)O2     activation          -0.055
2  C[C@@H]1CN([C@@H](C)CO)C(=O)c2cccc(NS(=O)(=O)c3ccc(Cl)cc3)c2O[C@H]1CN(C)C(=O)Nc1ccc2c(c1)OCO2     activation           -0.05
3  O=S(=O)(NCc1csc(-c2cccs2)n1)c1cccc(C(F)(F)F)c1     activation          -0.123
4  C[C@@H]1CN([C@@H](C)CO)C(=O)Cc2cc(NC(=O)NC3CCCCC3)ccc2O[C@H]1CN(C)C(=O)Nc1ccc2c(c1)OCO2     activation            16.7

q: I would be grateful if you could share the reported activation for CC(C)(C)CC(=O)Nc1ccc(-c2cn3cccnc3n2)cc1 .
a: 0.057

q: I would be grateful if you could share the reported activation for Cc1noc(C)c1NC(=O)N(C)C[C@@H]1Oc2ccc(NC(=O)Cn3cnnn3)cc2C(=O)N([C@@H](C)CO)C[C@@H]1C .
a: -0.143

q: I would be grateful if you could share the reported activation for C[C@H](CO)N1C[C@H](C)[C@@H](CN(C)S(C)(=O)=O)Oc2ccc(NC(=O)CCCCCC(=O)Nc3ccccc3N)cc2CC1=O .
a: 0.149

* * *

// values below are reported activation
# Measurement protocol: endothelial E-selectin upregulation by compounds – imaging, HUVEC, cherry-picked samples, dose response (AID 977605);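 also: signal is the share of imaged cells scored positive for E-selectin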
# Particulars: HUVEC E-selectin immunostaining, at 19.5 µM (top of the series), percent of TNF-alpha response over vehicle
Value expressed in %; do not type the unit.

>>> df
                                   compound  quantity_name  recorded_value
0  C[C@H](CO)N1C[C@H](C)[C@H](CN(C)S(=O)(=O)c2ccc(Cl)cc2)Oc2ccc(NC(=O)Cc3ccccc3)cc2C1=O     activation          -0.076
1   CC(=O)Nc1ccc(S(=O)(=O)NNc2cccc(C)c2)cc1     activation           0.281
2  CCOC(=O)N1CCN(c2c(N3CCOCC3)c(=O)c2=O)CC1     activation            7.45
3  NS(=O)(=O)c1ccc(NC(=O)CCC(=O)N2CCOCC2)cc1     activation           0.021
4  CC1CC(=O)Nc2ccccc2N1S(=O)(=O)c1cccs1 (stereo unspecified)     activation          -0.177
5  C[C@H]1CN([C@@H](C)CO)C(=O)Cc2cc(NC(=O)Nc3cccc4ccccc34)ccc2O[C@@H]1CN(C)C(=O)Nc1ccc(C(F)(F)F)cc1     activation            14.8
6  C[C@H]1CN([C@@H](C)CO)C(=O)Cc2cc(NS(=O)(=O)c3ccc(F)cc3)ccc2O[C@@H]1CN(C)S(=O)(=O)c1ccc(Cl)cc1     activation          -0.047
7  Cc1noc(C)c1S(=O)(=O)N(C)C[C@@H]1Oc2ccc(NC(=O)Nc3ccc(F)cc3)cc2CC(=O)N([C@@H](C)CO)C[C@@H]1C     activation          -0.013
8  COc1ccc(S(=O)(=O)N(C)C[C@H]2Oc3ccc(NC(=O)CCCN(C)C)cc3C(=O)N([C@@H](C)CO)C[C@H]2C)cc1     activation           0.162
9  C[C@@H]1CN([C@H](C)CO)C(=O)Cc2cc(NC(=O)Nc3ccc4c(c3)OCO4)ccc2O[C@H]1CN(C)Cc1ccc(Cl)c(Cl)c1     activation           0.291

q: I would be grateful if you could share the reported activation for CCn1nc(CC(=O)O)c2ccccc2c1=O .
a: 5.69

q: I would be grateful if you could share the reported activation for C[C@H]1CN([C@@H](C)CO)C(=O)c2cccc(NC(=O)c3ccncc3)c2O[C@H]1CN(C)Cc1ccc(C(=O)Nc2ccccc2N)cc1 .
a: 0.016

q: I would be grateful if you could share the reported activation for Cc1noc(C)c1NC(=O)N(C)C[C@@H]1Oc2ccc(NC(=O)c3ccncc3)cc2C(=O)N([C@H](C)CO)C[C@H]1C .
a: -0.047
